meta.source: ChEMBL document CHEMBL1121543

tested on: Rattus norvegicus; experiment: Organ distribution in rat heart 30 minutes after intravenous injection; assay type: ADME, organism-based; settings: in vivo, 0.5 h

Smiles Record | Experimental Target | Dose/organ
C1CN(CC[Se]CCN2CCOCC2)CCO1 | Rattus norvegicus | 0.22%
C[N+](C)(C)CC[Se]CC[N+](C)(C)C | Rattus norvegicus | 0.15%
C1CCN(CC[Se]CCN2CCCCC2)CC1 | Rattus norvegicus | 0.89%
CC(C)N(CC[Se]CCN(C(C)C)C(C)C)C(C)C | Rattus norvegicus | 0.55%
CN(C)CC[Se]CCN(C)C | Rattus norvegicus | 0.81%

###

tested on: Rattus norvegicus; assay: Organ distribution in rat lung 2 minutes after intravenous injection; assay type: ADME, organism-based; conditions: in vivo

Smiles Record | Experimental Target | Readout Units | Dose/organ
C1CCN(CC[Se]CCN2CCCCC2)CC1 | Rattus norvegicus | % | 20
CN(C)CC[Se]CCN(C)C | Rattus norvegicus | % | 11.36
CC(C)N(CC[Se]CCN(C(C)C)C(C)C)C(C)C | Rattus norvegicus | % | 11.2
C1CN(CC[Se]CCN2CCOCC2)CCO1 | Rattus norvegicus | % | 2.77

###

system: Rattus norvegicus; assay: Organ distribution in rat muscle 2 hr after intravenous injection; assay type: ADME, organism-based, Muscle tissue; details: in vivo
Parameter Dose/organ: see the listing below.

Smiles Record | Readout Units | Dose/organ
C1CN(CC[Se]CCN2CCOCC2)CCO1 | % | 17.7
CC(C)N(CC[Se]CCN(C(C)C)C(C)C)C(C)C | % | 15
CN(C)CC[Se]CCN(C)C | % | 15.2
C[N+](C)(C)CC[Se]CC[N+](C)(C)C | % | 5.48
C1CCN(CC[Se]CCN2CCCCC2)CC1 | % | 12

###

tested on: Rattus norvegicus; assay: Organ distribution in rat lung 30 minutes after intravenous injection; format: ADME, organism-based; conditions: in vivo, 0.5 h
Give Fulfilled when the value for Dose/organ is at least 3%. Give Not fulfilled when it is less.

Smiles Record | Qualitative Label
C[N+](C)(C)CC[Se]CC[N+](C)(C)C | Not fulfilled
C1CCN(CC[Se]CCN2CCCCC2)CC1 | Not fulfilled
CC(C)N(CC[Se]CCN(C(C)C)C(C)C)C(C)C | Fulfilled
CN(C)CC[Se]CCN(C)C | Fulfilled
C1CN(CC[Se]CCN2CCOCC2)CCO1 | Not fulfilled
